Values from patent US20030087906A1

System: UO-31
Assay: NCI 60-cell line growth inhibition assay
Assay type: cell-based
Conditions: Homo sapiens; UO-31 (Renal)
ENDPOINT_NAME: GI50 (nM)

> print(dat)
                                   compound  censoring.operator  reported
1  CC(C)n1cnc2c(NCc3ccc(-c4ccccn4)cc3)nc(N[C@H]3CC[C@H](N)CC3)nc21 [Compound 78]                   =       170
2  Cn1cnc2c(NCc3ccccc3)nc(NCCO)nc21 [Olomoucine, reference compound]                   =     32000
3  CC[C@H](CO)Nc1nc(NCc2ccc(-c3cccc([N+](=O)[O-])c3)cc2)c2ncn(C(C)C)c2n1 [Compound 48]                   <        10

====

GI50: recorded values
Tested on: HCC-2998
Test: NCI 60-cell line growth inhibition assay
Type: cell-based
Conditions: Homo sapiens; Colon, HCC-2998
ENDPOINT_NAME: GI50 (µM)

> print(dat)
                              smiles.string  reading.unit  censoring.operator  reported
1  C=Cc1ccc(-c2ccc(CNc3nc(N[C@H](CC)CO)nc4c3ncn4C(C)C)cc2)cc1            µM                   >      1000
2  CC[C@H](CO)Nc1nc(NCc2ccc(-c3cccc(C(F)(F)F)c3)cc2)c2ncn(C(C)C)c2n1            µM                   =      7.94
3  CC[C@H](CO)Nc1nc(NCc2ccc(-c3ccccc3)cc2)c2ncn(C(C)C)c2n1            µM                   =       0.2
4  CC[C@H](CO)Nc1nc(NCc2ccc(-c3ccccn3)cc2)c2ncn(C(C)C)c2n1            µM                   =      0.03

====

Test system: TK-10
Experiment: NCI 60-cell line growth inhibition assay
Type: cell-based
Settings: Homo sapiens; TK-10 (Renal)
Simple rule here: GI50 less than 400 nM is Criterion met, otherwise Criterion not met.

> print(dat)
                                   molecule        group.label
1  CC[C@H](CO)Nc1nc(NCc2ccc(-c3ccc(OC)cc3)cc2)c2ncn(C(C)C)c2n1  Criterion not met
2  Cn1cnc2c(NCc3ccccc3)nc(NCCO)nc21 [Olomoucine, reference compound]  Criterion not met
3  CC(C)n1cnc2c(NCc3ccc(-c4ccsc4)cc3)nc(N[C@H]3CC[C@H](N)CC3)nc21      Criterion met
4  CC(=O)N[C@H]1CC[C@H](Nc2nc(NCc3ccc(-c4ccccc4)nc3)c3ncn(C(C)C)c3n2)CC1      Criterion met
5  CC(C)n1cnc2c(NCc3ccc(-c4ccccn4)cc3)nc(N[C@H]3CC[C@H](N)CC3)nc21      Criterion met
6  CC[C@H](CO)Nc1nc(NCc2ccc(-c3cccc([N+](=O)[O-])c3)cc2)c2ncn(C(C)C)c2n1      Criterion met
7  CC(=O)N[C@H]1CC[C@H](Nc2nc(NCc3ccc(-c4ccccn4)cc3)c3ncn(C(C)C)c3n2)CC1      Criterion met

====

Tested on: HeLa S-3 cells
Test: Inhibition of cell growth of HeLa cells (SRB)
Format: cell-based, human
Conditions: 2 days of treatment, replicate experiments
Recorded measurements of GI50, one per entry
ENDPOINT_NAME: GI50 (nM)

> print(dat)
                              smiles.string  reading.unit  censoring.operator  reported
1  CC(C)n1cnc2c(NCc3cccc(-c4ccccc4)c3)nc(N[C@H]3CC[C@H](NC(=O)OC(C)(C)C)CC3)nc21            nM                   >     10000
2  CC(C)n1cnc2c(NCCc3ccc(-c4ccsc4)cc3)nc(N[C@H]3CC[C@H](NC(=O)OC(C)(C)C)CC3)nc21            nM                   >     10000
3  CC(=O)N[C@H]1CC[C@H](Nc2nc(NCc3ccc(-c4cc(C)cs4)cc3)c3ncn(C(C)C)c3n2)CC1            nM                   =       200
4  COc1cccc(-c2ccc(CNc3nc(N[C@H]4CC[C@H](NC(C)=O)CC4)nc4c3ncn4C(C)C)cc2)c1            nM                   =       300
